- Test system: 409B2 hiPSC (iCRISPR Cas9, FRMD7 editing)
- EXPERIMENT SUMMARY: cell survival relative to solvent control (fold (ratio to mock)); higher = more surviving cells
- APPLIED CONDITIONS: 20000 nM
Structures can show the parent of a compound that is named as a salt.
Each record here notes measured cell survival.
Would you mind answering with just the numeric figure?

CCN1CCN(Cc2ccc(Nc3ncc(F)c(-c4cc(F)c5nc(C)n(C(C)C)c5c4)n3)nc2)CC1 (in EtOH) | -0.00662
CCN1CCC[C@H]1CNC(=O)c1cc(S(N)(=O)=O)ccc1OC [Levosulpiride] (in DMSO) | 1.18
CC(CCc1ccccc1)NCC(O)c1ccc(O)c(C(N)=O)c1 (stereo not drawn) [Labetalol HCl] (in DMSO) | 1.14
CN(C)C(=O)C(CCN1CCC(O)(c2ccc(Cl)cc2)CC1)(c1ccccc1)c1ccccc1 [Loperamide HCl] (in DMSO) | -0.00906
O=C1CN(/N=C/c2ccc(-c3ccc([N+](=O)[O-])cc3)o2)C(=O)N1 [Dantrolene, sodium salt] (in DMSO) | 1.33
CN(C)C(=O)Oc1cccc([N+](C)(C)C)c1 [Hodostin] (in DMSO) | 1.14
C[C@@H]1O[C@@H](O[C@H]2C[C@@H](O)[C@]3(CO)[C@H]4[C@H](O)C[C@]5(C)[C@@H](C6=CC(=O)OC6)CC[C@]5(O)[C@@H]4CC[C@]3(O)C2)[C@H](O)[C@H](O)[C@H]1O [Ouabain Octahydrate] (in H2O) | 0.0655
O=[N+]([O-])O[C@@H]1CO[C@H]2[C@@H]1OC[C@@H]2O [Isosorbide 5-mononitrate] (in DMSO) | 1.15

# cell survival of Nc1ccn(C[C@@H](CO)OCP(=O)(O)O)c(=O)n1 [Cidofovir] (in H2O) = 0.167

Item: CNCC[C@H](Oc1cccc2ccccc12)c1cccs1 [Duloxetine HCl] (in DMSO) | cell survival: 0.796

Consider CC(=O)c1c(C)c2cnc(Nc3ccc(N4CCNCC4)cn3)nc2n(C2CCCC2)c1=O (in DMSO) . Its measured cell survival is -0.0205

Value of cell survival reported for the compound C[C@]12CC[C@@H]3c4ccc(O)cc4CC[C@H]3[C@@H]1C[C@@H](O)[C@@H]2O [Estriol] (in DMSO) is 0.994

Record Cc1ccc(NC(=O)c2ccc(CN3CC[C@H](N(C)C)C3)c(C(F)(F)F)c2)cc1Nc1nccc(-c2cncnc2)n1 [Bafetinib (INNO-406)] (in DMSO) , field cell survival: 0.096
